Heads up, these compounds all have IC50 values measured for CYP2D6 (Homo sapiens (Human)).

Example results:
1) C[C@H]1C[C@H]2CSC(N)=N[C@@]2(c2nc(NC(=O)c3ccc(Cl)cn3)cs2)CO1: < 30 µM
2) C[C@H]1C[C@H]2CSC(N)=N[C@@]2(c2nc(NC(=O)c3cnc(OC(F)F)cn3)cs2)CO1: < 30 µM

Data request, read-out IC50, for "C[C@H]1C[C@H]2CSC(N)=N[C@@]2(c2nc(NC(=O)c3ccc(OC(F)F)cn3)cs2)CO1"
< 30 µM

Cited source: patent US9605007B2
